Hey, just so you know, these numbers are from patent US8722622B2.

- assay-name: Stability of linkers L1-L4 conjugated to FGF21 (LC-MS)
- Assay type: physicochemical
- settings: +4° C., 24 hrs
recorded-endpoint: +(2) H2O (%)
Express it in %; write the number only.

Problem: Quick check: +(2) H2O of L1-FGF21ΔH-A129C: Linker-1 conjugated to FGF21ΔH-A129C protein (Table 4; Table 5 row L1) (conjugate, UniProt Q9NSA1 29-209, looked up, variant H1* A129C, Linker-1 attached) Fibroblast growth factor 21: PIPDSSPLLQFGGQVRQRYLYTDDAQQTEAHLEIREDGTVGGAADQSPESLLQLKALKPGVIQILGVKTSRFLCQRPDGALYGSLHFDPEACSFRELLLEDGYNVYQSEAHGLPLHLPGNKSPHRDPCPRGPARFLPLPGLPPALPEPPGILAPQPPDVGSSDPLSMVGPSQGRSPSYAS ?
Solution: 11
